Origin of the recorded values: ChEMBL document CHEMBL4304768

- assay-remarks: Stability in human plasma assessed as percentage intact peptide at 100 uM incubated for 6 hrs by LC-HRMS analysis
- Format: ADME, cell-free
- condition-set: read-out: Stability

smiles-entry	remaining at 6 h, 100 µM
CCC(=O)N[C@@H](CCCNC(=N)N)C(=O)N[C@@H](CCCNC(=N)N)C(=O)N1CCC[C@H]1C(=O)N[C@@H](Cc1ccc(O)cc1)C(=O)N[C@H](C(=O)N[C@@H](CC(C)C)C(=O)O)C(C)(C)C	> 99%
CC(C)C[C@H](NC(=O)[C@@H](NC(=O)[C@H](Cc1ccc(O)cc1)NC(=O)[C@@H]1CCCN1C(=O)[C@H](CCCNC(=N)N)N(C)C(=O)[C@@H](N)CCCNC(=N)N)C(C)(C)C)C(=O)O.O=C(O)C(F)(F)F.O=C(O)C(F)(F)F.O=C(O)C(F)(F)F	> 99%
CN[C@@H](CCCNC(=N)N)C(=O)N[C@@H](CCCNC(=N)N)C(=O)N1CCC[C@H]1C(=O)N[C@@H](Cc1ccc(O)cc1)C(=O)N[C@H](C(=O)N[C@@H](CC(C)C)C(=O)O)C(C)(C)C.O=C(O)C(F)(F)F.O=C(O)C(F)(F)F.O=C(O)C(F)(F)F	> 99%
